- assayed-system: T1, CD38 on the surface of Daudi cells (human, UniProt P28907 1-300)
- T1 construct: whole, on cells
- measurement-notes: flow cytometry, Daudi cells;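 also: purified antibodies incubated with Daudi cells for 1 h at 4 °C, bound antibody detected by fluorescent secondary antibody and read by flow cytometry as MFI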
The following binders are listed with their measured Max Binding MFI values.
readout-kind: Max Binding MFI (MFI)

17E9 (antibody, human IgG1, kappa, V domains shown, Rabbit-human chimeric anti-CD38: rabbit VH and VL on human IgG1 and kappa constant regions) VH: QSVEESGGRLVTPGTPLTLTCTASGFSLSRYYVTWVRQAPGKGLEWIGIIYISGTTYYATWAKGRFTISKSATTVDLRIASPTTEDTATYFCAAAWPVGTYVLPLWGPGTLVTVSS VL: AAVLTQTPSPVSAAVGGTVTIKCQSSQSVVNANNLSWYQQKPGQPPKLLIYLASTLASGVPSRFSGSGSGTQFTLTISSVQSDDAATYYCLGVYDDDGDNAFGGGTEVVVKR    2260
21H9 (antibody, human IgG1, kappa, V domains shown, Rabbit-human chimeric anti-CD38: rabbit VH and VL on human IgG1 and kappa constant regions) VH: QSLEESGGDLVKPGASLTLTCTASGFSATTYYYYMCWVRQAPGKGLEWIACTYTGDGATYYATWAKGRFTISKTSSTTVTLQMTSLTAADTATYFCARSADNSIYYGYFNLWGPGTLVTVSS VL: AFELTQTPFSVSEPVGGTVTINCQASENIYSSLAWYQQKPGQPPKLLIYRASTLASGVPSRFSGSGSGTEFTLTISGVQSDDAATYYCQTYYGSTSTGFTFGGGTEVVVKR    1930
23D1 (antibody, human IgG1, kappa, V domains shown, Rabbit-human chimeric anti-CD38: rabbit VH and VL on human IgG1 and kappa constant regions) VH: QELVESGGGLFQPGGSLALTCKASGFSLSNIYVMCWVRQAPGKGLEWIACIGTGSGDTDYATWAKGRFTISKTSSTTVTLQMTSLTAADTATYFCARDPGAGTWNLWGPGTLVTVSS VL: DIVMTQTPSSVEAAVGGTVTIKCQASQTIGSRLAWYQQKPGQPPKLLIYSASTLASGVSSRFKGSGSGTQFTLTISDLDSADAATYYCQSYYYTSTSYPNAFGGGTEVVVKR    1000
17F7 (antibody, human IgG1, kappa, V domains shown, Rabbit-human chimeric anti-CD38: rabbit VH and VL on human IgG1 and kappa constant regions) VH: QSVEESGGRLVTPGTPLTLTCTASGFSLSSYYMSWVRQAPGKGLEWIGFISKTAITYYASWARGRFTISKTSTAVDLKITSPTTEDTATYFCARVDAYSAGDLWGPGTLVTVSS VL: AQVLTQTPSSVSAAVGGTVTINCQASQSVYSDNRLSWFQQKSGQPPKLLIYSTSSLASGVPSRFSGSGSGTQFTLTISGVQSDDAASYYCQGEFICTSADCFVFGGGTEVVVKR    1530
22H6 (antibody, human IgG1, kappa, V domains shown, Rabbit-human chimeric anti-CD38: rabbit VH and VL on human IgG1 and kappa constant regions) VH: QSVEESGGRLVTPGTPLTLTCTVSGFSLSNNAISWVRQAPGKGLQWIGSIYGSGNTYYATWAKGRFTVSKTSTTVDLKINSPTTEDTATYFCAREGAGSSWGFNLWGPGTLVTVSS VL: AQVLTQTASSVSAAVGGTVTISCQSSESVYKNNYLSWYQQKPGQPLKCLIYSASTLASGVPSRFKGSGSGTQFTLTISDLESDDAATYYCAGGYSGNINGFGGGTEVVVKR    782
27F6 (antibody, human IgG1, kappa, V domains shown, Rabbit-human chimeric anti-CD38: rabbit VH and VL on human IgG1 and kappa constant regions) VH: QSLEESGGGLVKPGASLTLTCKASGFSFSSGCDMCWVRQAPGKGLEWISCIYTGSGSTYYANWAKGRFTISRTSSTTVTLQMTSLTAADTATYFCAGDSDYLGLWGPGTLVTVSS VL: DIVMTQTPSSVEAAVGGTVTIKCQASQNIGNYLAWYQQKPGQPPKVLIYRASTLASGVPSRFKGSGSGTHFTLTISDLESADAATYYCQSYYYTTDDNYRSWAFGGGTEVVVKR    1200
18E4 (antibody, human IgG1, kappa, V domains shown, Rabbit-human chimeric anti-CD38: rabbit VH and VL on human IgG1 and kappa constant regions) VH: QSLEESGGDLVKPGASLTLTCTASGFSFNNYWICWIRQAPGKGLEWVACIYSPSGDIKYYANWAKGRFTVSKTSSTTVTLQMTSLTGADTATYFCARELSGSSYEGYFESWGPGTLVTVSS VL: AQVLTQTPSSVSAAVGGTVTINCQCSQSVYGHNWLAWYQHKPGQPPKLLMYRASNLASGVPSRFKGSGSGSQFTLTIGEVQSDDAATYYCQGYYNGGSYAFGGGTEVVVRR    1580
23B3 (antibody, human IgG1, kappa, V domains shown, Rabbit-human chimeric anti-CD38: rabbit VH and VL on human IgG1 and kappa constant regions) VH: QSVEESGGRLVTPGTPLTLTCTVSGFSLSNYDMTWVRQAPGRGLEWIGVISSGDNTNYARWAKGRFTISKTSSTTVDLKITSPTTEDTATYFCARILYNKGRYYFTFWGPGTLVTVSS VL: AQVLTQTPSSVSAAVGGTVTINCQSSQSIANSDELAWYQQKPGQPPKLLIYDASTLAPGVPSRFSGSGSGTQFTLTISGVQSDDAATYYCQGTVYDSGWYAAFGGGTEVVVKR    1330
